Molecular target: Lck (Homo sapiens)
Sequence (P06239 whole entry, species assumed): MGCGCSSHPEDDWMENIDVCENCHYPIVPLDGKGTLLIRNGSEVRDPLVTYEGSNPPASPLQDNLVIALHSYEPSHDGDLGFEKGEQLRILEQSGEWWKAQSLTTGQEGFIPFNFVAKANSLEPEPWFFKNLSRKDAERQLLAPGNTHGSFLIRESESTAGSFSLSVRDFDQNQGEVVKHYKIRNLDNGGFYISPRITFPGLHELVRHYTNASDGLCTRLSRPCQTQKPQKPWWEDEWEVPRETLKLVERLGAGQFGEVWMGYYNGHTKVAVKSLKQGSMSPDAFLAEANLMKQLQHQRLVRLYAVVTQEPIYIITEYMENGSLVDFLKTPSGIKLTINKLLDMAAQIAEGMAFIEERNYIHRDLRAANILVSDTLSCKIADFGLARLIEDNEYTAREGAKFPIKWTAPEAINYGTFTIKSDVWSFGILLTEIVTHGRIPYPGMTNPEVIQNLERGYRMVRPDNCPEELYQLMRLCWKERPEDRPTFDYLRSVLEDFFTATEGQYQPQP
Assay: Lck kinase activity, TR-FRET assay
Format: biochemical
Conditions: read-out: LCK (IC50)
Could you please report measured IC50 for the items listed next?

Report IC50 under test system Lck (Homo sapiens) for `C=CC(=O)N1CC[C@@H](Nc2n[nH]c3nccc(Oc4cccc(C(=O)Nc5ccc(C(C)C)c(C)c5)c4)c23)C1` .
< 100 nM

Send back Lck (Homo sapiens) IC50 of `C=CC(=O)N1CCC[C@@H](Nc2n[nH]c3nccc(Oc4ccc(NC(=O)Nc5cc(C(F)(F)F)ccn5)cc4)c23)C1` only.
< 100 nM

State IC50 (Lck (Homo sapiens)) of `N#Cc1cc(Nc2n[nH]c3nccc(Oc4ccc(Oc5ccccc5)cc4)c23)ccn1` .
100 to 1000 nM

Param request: IC50 | system Lck (Homo sapiens) | item Cc1cnc(NC(=O)c2ccc(Oc3ccnc4[nH]nc(C5CCCN(C(=O)C6CCN(C)CC6)C5)c34)cc2)s1 (stereo not shown)
1000 to 10000 nM

With Lck (Homo sapiens) as the test system, provide measured IC50 for this compound: `C=CC(=O)N1CCC[C@@H](Nc2n[nH]c3nccc(Oc4cccc(C(=O)Nc5ccc(C(C)C)c(C)c5)c4)c23)C1`
< 100 nM

Give reported IC50 for `Cc1cc(NC(=O)c2cccc(Nc3ccnc4[nH]nc(N[C@@H]5CCCN(C(=O)c6ccc(F)cc6)C5)c34)c2)ccc1C(C)C` (Lck (Homo sapiens))
> 10000 nM

Give the observed IC50 of `CN(C/C=C/C(=O)N1CC[C@@H](Nc2n[nH]c3nccc(Oc4ccc(Oc5ccccc5)cc4)c23)C1)C1CC1` for Lck (Homo sapiens).
< 100 nM

* * *

For each entry below, report its pIC50 value.
Molecular target: Btk (Homo sapiens)
Sequence (Q06187 whole entry): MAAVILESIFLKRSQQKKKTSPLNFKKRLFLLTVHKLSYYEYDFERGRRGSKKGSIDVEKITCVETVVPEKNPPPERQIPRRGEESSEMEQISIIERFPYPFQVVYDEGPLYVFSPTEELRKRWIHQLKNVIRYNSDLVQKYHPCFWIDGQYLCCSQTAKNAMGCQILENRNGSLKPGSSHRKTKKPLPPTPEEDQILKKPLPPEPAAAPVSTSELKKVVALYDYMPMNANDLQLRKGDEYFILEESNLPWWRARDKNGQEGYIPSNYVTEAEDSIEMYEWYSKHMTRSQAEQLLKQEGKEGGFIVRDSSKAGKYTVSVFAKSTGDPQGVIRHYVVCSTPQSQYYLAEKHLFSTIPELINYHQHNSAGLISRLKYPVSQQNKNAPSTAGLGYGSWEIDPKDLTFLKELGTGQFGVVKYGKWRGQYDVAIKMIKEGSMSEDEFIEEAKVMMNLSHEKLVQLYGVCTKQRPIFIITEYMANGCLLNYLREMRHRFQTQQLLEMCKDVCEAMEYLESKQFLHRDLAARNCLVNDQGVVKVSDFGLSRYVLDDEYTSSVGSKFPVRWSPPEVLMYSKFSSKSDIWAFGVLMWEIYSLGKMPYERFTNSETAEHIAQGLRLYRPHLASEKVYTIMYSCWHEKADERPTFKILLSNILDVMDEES
Test: Btk kinase activity, TR-FRET assay
Assay type: biochemical
Settings: read-out: Btk (IC50)
Protocol: Btk kinase activity is determined using a time-resolved fluorescence resonance energy transfer (TR-FRET) methodology. Measurements are performed in a reaction volume of 50 μL using 96-well assay plates. […] The TR-FRET signal is measured on a multimode plate reader with an excitation wavelength (λEx) of 330 nm and detection wavelengths (λEm) of 615 and 665 nm. Activity is determined by the ratio of the fluorescence at 665 nm to that at 615 nm. […]
pIC50: −log10 of the molar value.

Fill in reported pIC50 for this entry: `C=CC(=O)N1CCC[C@@H](Nc2n[nH]c3nccc(Oc4ccc(-c5ncc(C)s5)cc4)c23)C1`
> 7.00

Look up and state reported pIC50 for `Cc1ccnc(NC(=O)c2ccc(Oc3ccnc4[nH]nc(N[C@@H]5CCCN(C(=O)N6CCOCC6)C5)c34)cc2)c1`
> 7.00

Please list pIC50 recorded for the molecule `C=CC(=O)N1CCC[C@@H](Nc2n[nH]c3nccc(Oc4ccc(Oc5ccccc5)cc4)c23)C1`
> 7.00

// fetch pIC50 given entry `CN(C/C=C/C(=O)N1CC[C@@H](Nc2n[nH]c3nccc(Oc4ccc(C(=O)Nc5ccncn5)cc4)c23)C1)C1CC1`
6.00 to 7.00

Quickly give me recorded pIC50 for `CN(C/C=C/C(=O)N1CCC[C@@H](Nc2n[nH]c3nccc(Oc4ccc(C(=O)Nc5cccc(C(F)(F)F)c5)cc4)c23)C1)C1CC1`
6.00 to 7.00

Give a short answer stating reported pIC50 for `CCNC(=O)N1CCC[C@@H](Nc2n[nH]c3nccc(Oc4ccc(C(=O)Nc5cc(C#N)ccn5)cc4)c23)C1` .
> 7.00

Answer with reported pIC50 of `C=CC(=O)N1CCC[C@@H](Nc2n[nH]c3nccc(Oc4ccc(C(=O)Nc5ncc(CC)s5)cc4)c23)C1`
> 7.00

Tell me measured pIC50 for `Cc1cc(NC(=O)c2ccc(Oc3ccnc4[nH]nc(N[C@@H]5CCCN(C(=O)/C=C/CN(C)C6CC6)C5)c34)cc2)nn1C` please.
6.00 to 7.00

# return recorded pIC50 for entry CCNC(=O)N1CCCC(c2n[nH]c3nccc(Oc4ccc(C(=O)Nc5cc(C(F)(F)F)ccn5)cc4)c23)C1 (centres unmarked)
6.00 to 7.00

Please indicate pIC50 recorded for `N#C/C(=C\c1ncc[nH]1)C(=O)N1CC[C@@H](Nc2n[nH]c3nccc(Oc4ccc(Oc5ccccc5)cc4)c23)C1`
> 7.00

Specify reported pIC50 for the molecule shown: `Cc1cccc(NC(=O)c2ccc(Oc3ccnc4[nH]nc(N[C@@H]5CCCN(C(=O)C6(C)CCOCC6)C5)c34)cc2)n1`
6.00 to 7.00

Give a short answer stating reported pIC50 for `Cc1ccnc(NC(=O)c2ccc(Oc3ccnc4[nH]nc(N[C@@H]5CCCN(C(=O)C6CCN(C)CC6)C5)c34)cc2)c1` .
> 7.00

Supply measured pIC50 of `CCNC(=O)N[C@@H]1CCCN(c2n[nH]c3nccc(Oc4ccc(C(=O)Nc5cc(C(F)(F)F)ccn5)cc4)c23)C1` in your reply.
> 7.00

Report pIC50, nothing else, for this molecule: `Cc1cc(NC(=O)c2cccc(Oc3ccnc4[nH]nc(N[C@H]5CCNC5)c34)c2)ccc1C(C)C`
6.00 to 7.00

* * *

Biological target: Btk (Homo sapiens)
Test: Btk kinase activity, TR-FRET assay
Assay type: biochemical
Details: read-out: Btk (IC50)
Test Readout: IC50

Specify the recorded IC50 for `c1ccc(Oc2ccc(Oc3ccnc4[nH]nc(NC[C@H]5CCNC5)c34)cc2)cc1` , system: Btk (Homo sapiens).
100 to 1000 nM

# return IC50 for Cc1ccnc(NC(=O)c2ccc(Oc3ccnc4[nH]nc(N[C@@H]5CCCN(C(=O)[C@@H]6CCCO6)C5)c34)cc2)c1 [compound 117] , test system: Btk (Homo sapiens)
< 100 nM

Please indicate recorded IC50 of `CCNC(=O)Nc1ccc(Oc2ccnc3[nH]nc(N[C@@H]4CCCN(C(=O)/C=C/CN(C)C5CC5)C4)c23)cc1` measured with Btk (Homo sapiens).
> 10000 nM

State, for Btk (Homo sapiens), measured IC50 of the compound listed here: `CCNC(=O)N1CCC[C@@H](Nc2n[nH]c3nccc(Oc4ccc(C(=O)Nc5cc(C(F)(F)F)ccn5)cc4)c23)C1`
< 100 nM

Please report the measured IC50 for `CN(C/C=C/C(=O)N1CC[C@@H](Nc2n[nH]c3nccc(Oc4ccc(C(=O)Nc5cc(C#N)ccn5)cc4)c23)C1)C1CC1` tested on Btk (Homo sapiens).
< 100 nM

Please report IC50 with Btk (Homo sapiens) for item `Cc1cc(NC(=O)c2cccc(Oc3ccnc4[nH]nc(N[C@@H]5CCCN(C(=O)C#CCO)C5)c34)c2)ccc1C(C)C` .
< 100 nM

Report measured IC50 on Btk (Homo sapiens); entry: `C=CC(=O)N1CCC[C@@H](Nc2n[nH]c3nccc(Nc4cccc(C(=O)Nc5ccc(C(C)C)c(C)c5)c4)c23)C1`
< 100 nM

Write down the reported IC50 (system: Btk (Homo sapiens)) of `C=CC(=O)N1CCC[C@@H](Nc2n[nH]c3nccc(Oc4ccc(C(=O)Nc5ncc(C#N)s5)cc4)c23)C1`
< 100 nM

// fetch IC50; item: `c1ccc(Oc2ccc(Oc3ccnc4[nH]nc(NC5CCOCC5)c34)cc2)cc1` ; system: Btk (Homo sapiens)
< 100 nM

Under Btk (Homo sapiens), report IC50 for `Cc1ccnc(NC(=O)c2ccc(Oc3ccnc4[nH]nc(N[C@@H]5CCN(C(=O)C6(C#N)CC6)C5)c34)cc2)c1`
< 100 nM

Fill: IC50 (Btk (Homo sapiens)) for this compound `Cc1ccnc(NC(=O)c2ccc(Oc3ccnc4[nH]nc(N[C@@H]5CCCN(C(=O)C6CC6)C5)c34)cc2)c1`
< 100 nM

Report measured IC50 on Btk (Homo sapiens); entry: `C=CC(=O)N1CCC[C@@H](Nc2n[nH]c3nccc(Oc4ccc(C(=O)Nc5cc(C(F)(F)F)ccn5)cc4)c23)C1`
< 100 nM

GET IC50 | system: Btk (Homo sapiens) | item: `C=CC(=O)N1CCC[C@@H](Nc2n[nH]c3nccc(Oc4ccc(C(=O)Nc5cc(C)on5)cc4)c23)C1`
< 100 nM

State measured IC50 of the compound `Cc1cc(NC(=O)c2cccc(Oc3ccnc4[nH]nc(N[C@H]5CCN(C(=O)C6CC6)C5)c34)c2)ccc1C(C)C` with Btk (Homo sapiens).
100 to 1000 nM

Answer with IC50 of `c1ccc(Oc2ccc(Oc3ccnc4[nH]nc(NC5CCNCC5)c34)cc2)cc1` measured for Btk (Homo sapiens).
< 100 nM

# lookup: Btk (Homo sapiens) IC50, key = `CCNC(=O)N1CCC[C@@H](Nc2n[nH]c3nccc(Oc4ccc(C(=O)Nc5cc(C)ccn5)cc4)c23)C1`
< 100 nM

Fetch value of IC50 on Btk (Homo sapiens) for `C=CC(=O)N1CCC[C@@H](Nc2n[nH]c3nccc(Oc4ccc(C(=O)Nc5ncc(C)s5)cc4)c23)C1` .
< 100 nM

Report its IC50 with Btk (Homo sapiens) as the test system: `O=C(c1cccc(Oc2ccnc3[nH]nc(N[C@@H]4CCCNC4)c23)c1)N1CCOCC1`
100 to 1000 nM

For Btk (Homo sapiens), give IC50 of the listed compound: `CN(C)C/C=C/C(=O)N1CC[C@@H](Nc2n[nH]c3nccc(Oc4ccc(-c5ncco5)c(Cl)c4)c23)C1`
100 to 1000 nM

Give IC50; test system Btk (Homo sapiens); compound `COCC#CC(=O)N1CCC[C@@H](Nc2n[nH]c3nccc(Oc4ccc(C(=O)Nc5cc(C)ccn5)cc4)c23)C1`
< 100 nM

System Btk (Homo sapiens). Read-out IC50. Item `CCOP(=O)(CCC(=O)N1CCC[C@@H](Nc2n[nH]c3nccc(Oc4ccc(C(=O)Nc5cc(C)ccn5)cc4)c23)C1)OCC` . Report value.
< 100 nM

GET IC50 where system = Btk (Homo sapiens) and item = `CN1CCC(C(=O)N2CC[C@@H](Nc3n[nH]c4nccc(Oc5ccc(C(=O)Nc6cc(C(F)(F)F)ccn6)cc5)c34)C2)CC1`
< 100 nM

Tell me its IC50 on Btk (Homo sapiens): `COCCCC(=O)N1CCC[C@@H](Nc2n[nH]c3nccc(Oc4ccc(C(=O)Nc5cc(C)ccn5)cc4)c23)C1`
< 100 nM

Under Btk (Homo sapiens): report IC50 of `COCCC(=O)N1CCC[C@@H](Nc2n[nH]c3nccc(Oc4ccc(C(=O)Nc5cc(C#N)ccn5)cc4)c23)C1` .
< 100 nM

Jot down IC50 (Btk (Homo sapiens)) of `COc1ccnc(NC(=O)c2ccc(Oc3ccnc4[nH]nc(N[C@@H]5CCN(C(=O)/C=C/CN(C)C6CC6)C5)c34)cc2)c1` .
< 100 nM

Report IC50 under test system Btk (Homo sapiens) for `CC1(C(=O)N2CCC[C@@H](Nc3n[nH]c4nccc(Oc5ccc(C(=O)Nc6cc(C#N)ccn6)cc5)c34)C2)COC1` .
< 100 nM

Give IC50 for this entry on Btk (Homo sapiens): `CC1(C(=O)N2CCC[C@@H](Nc3n[nH]c4nccc(Oc5ccc(C(=O)Nc6ccccn6)cc5)c34)C2)CCOCC1`
< 100 nM
